- Tested on: KM12
- measurement protocol: In vitro cytotoxicity against human colon cancer KM 12 cell line
- Assay type: functional
GI50 strictly less than 2 µM = t. Otherwise f.

Req: Find out if reported GI50 for CCOC(=O)[C@@H]1[C@H](c2cc(OC)c(O)c(OC)c2)c2cc3c(cc2[C@H](O)[C@H]1CO)OCO3 is less than 2 µM
Resp: t

Req: Follow-up entry: COC(=O)[C@@H]1[C@H](c2cc(OC)c(O)c(OC)c2)c2cc3c(cc2[C@H](O)[C@H]1CO)OCO3
Resp: t

Req: Follow-up entry: CCOC(=O)[C@@H]1[C@H](c2cc(OC)c(OC)c(OC)c2)c2cc3c(cc2[C@H](O)[C@H]1CO)OCO3
Resp: f

Req: Follow-up entry: CCCOC(=O)[C@@H]1[C@H](c2cc(OC)c(OC)c(OC)c2)c2cc3c(cc2[C@H](O)[C@H]1CO)OCO3
Resp: t

Req: Follow-up entry: CCOC(=O)[C@@H]1[C@H](c2cc(OC)c(OC)c(OC)c2)c2cc3c(cc2C(=O)[C@H]1CO)OCO3
Resp: f

Req: Follow-up entry: CCOC(=O)[C@@H]1C(c2cc(OC)c(OC)c(OC)c2)c2cc3c(cc2[C@@H]2OC(=O)OC[C@@H]12)OCO3 (stereo partly specified)
Resp: f

Req: Follow-up entry: COc1cc([C@@H]2c3cc4c(cc3[C@H](O)[C@@H](CO)[C@@H]2C(=O)O)OCO4)cc(OC)c1OC
Resp: t

Req: Follow-up entry: COC(=O)[C@@H]1[C@H](c2cc(OC)c(OC)c(OC)c2)c2cc3c(cc2C(=O)[C@H]1CO)OCO3
Resp: f

Req: Follow-up entry: COC(=O)[C@@H]1[C@H](c2cc(OC)c(O)c(OC)c2)c2cc3c(cc2[C@@H]2OC(=O)OC[C@@H]12)OCO3
Resp: t

Req: Follow-up entry: COc1cc([C@@H]2c3cc4c(cc3[C@@H](O[C@@H]3O[C@@H]5CO[C@@H](C)O[C@H]5[C@H](O)[C@H]3O)[C@H]3COC(=O)[C@H]23)OCO4)cc(OC)c1O [ETOPOSIDE]
Resp: f

Req: Follow-up entry: COC(=O)[C@@H]1[C@H](c2cc(OC)c(OC)c(OC)c2)c2cc3c(cc2[C@H](O)[C@H]1CO)OCO3
Resp: t

Req: Follow-up entry: CCCCOC(=O)[C@@H]1[C@H](c2cc(OC)c(OC)c(OC)c2)c2cc3c(cc2[C@H](O)[C@H]1CO)OCO3
Resp: t

Req: Follow-up entry: COC(=O)[C@@H]1C(c2cc(OC)c(OC)c(OC)c2)c2cc3c(cc2[C@@H]2OC(=O)OC[C@@H]12)OCO3 (stereo partly specified)
Resp: f

Req: Follow-up entry: CCOC(=O)[C@@H]1[C@H](c2cc(OC)c(O)c(OC)c2)c2cc3c(cc2[C@@H]2OC(=O)OC[C@@H]12)OCO3
Resp: t

Req: Follow-up entry: COc1cc([C@@H]2c3cc4c(cc3[C@H](O)[C@H]3COC(=O)[C@H]23)OCO4)cc(OC)c1OC [PODOFILOX]
Resp: t

###

- Tested on: MCF7
- measurement protocol: In vitro cytotoxicity against human breast cancer MCF-7 cell line
- Format: functional
GI50 strictly less than 2000 nM = true (1). Otherwise false (0).

Req: Find out if reported GI50 for COC(=O)[C@@H]1[C@H](c2cc(OC)c(O)c(OC)c2)c2cc3c(cc2[C@H](O)[C@H]1CO)OCO3 is less than 2000 nM
Resp: true (1)

Req: Follow-up entry: CCOC(=O)[C@@H]1[C@H](c2cc(OC)c(O)c(OC)c2)c2cc3c(cc2[C@H](O)[C@H]1CO)OCO3
Resp: false (0)

Req: Follow-up entry: CCOC(=O)[C@@H]1[C@H](c2cc(OC)c(OC)c(OC)c2)c2cc3c(cc2C(=O)[C@H]1CO)OCO3
Resp: false (0)

Req: Follow-up entry: CCCOC(=O)[C@@H]1[C@H](c2cc(OC)c(OC)c(OC)c2)c2cc3c(cc2[C@H](O)[C@H]1CO)OCO3
Resp: true (1)

Req: Follow-up entry: CCOC(=O)[C@@H]1[C@H](c2cc(OC)c(OC)c(OC)c2)c2cc3c(cc2[C@H](O)[C@H]1CO)OCO3
Resp: false (0)

Req: Follow-up entry: COc1cc([C@@H]2c3cc4c(cc3[C@H](O)[C@H]3COC(=O)[C@H]23)OCO4)cc(OC)c1OC
Resp: true (1)

Req: Follow-up entry: COC(=O)[C@@H]1[C@H](c2cc(OC)c(OC)c(OC)c2)c2cc3c(cc2[C@H](O)[C@H]1CO)OCO3
Resp: true (1)

Req: Follow-up entry: COC(=O)[C@@H]1[C@H](c2cc(OC)c(OC)c(OC)c2)c2cc3c(cc2C(=O)[C@H]1CO)OCO3
Resp: false (0)

###

- Tested on: MDA-MB-435
- measurement protocol: In vitro cytotoxicity against human breast cancer MDA-MB 435 cell line
- Type: functional
measured attribute: GI50 (nM)
Reply numerically in nM, unit not repeated.

Req: Looking for the measured GI50 of COc1cc([C@@H]2c3cc4c(cc3[C@H](O)[C@H]3COC(=O)[C@H]23)OCO4)cc(OC)c1OC , can you help?
Resp: 700

Req: Follow-up entry: COC(=O)[C@@H]1[C@H](c2cc(OC)c(OC)c(OC)c2)c2cc3c(cc2[C@H](O)[C@H]1CO)OCO3
Resp: 10

Req: Follow-up entry: CCCOC(=O)[C@@H]1[C@H](c2cc(OC)c(OC)c(OC)c2)c2cc3c(cc2[C@H](O)[C@H]1CO)OCO3
Resp: 400

Req: Follow-up entry: CCOC(=O)[C@@H]1[C@H](c2cc(OC)c(OC)c(OC)c2)c2cc3c(cc2[C@H](O)[C@H]1CO)OCO3
Resp: 4400

Req: Follow-up entry: COc1cc([C@@H]2c3cc4c(cc3[C@@H](O[C@@H]3O[C@@H]5CO[C@@H](C)O[C@H]5[C@H](O)[C@H]3O)[C@H]3COC(=O)[C@H]23)OCO4)cc(OC)c1O [ETOPOSIDE]
Resp: 900

Req: Follow-up entry: COC(=O)[C@@H]1[C@H](c2cc(OC)c(OC)c(OC)c2)c2cc3c(cc2C(=O)[C@H]1CO)OCO3
Resp: 1640

###

- System: HCT-116
- measurement protocol: In vitro cytotoxicity against human colon cancer HCT 116 cell line
- Assay type: functional
measured attribute: GI50 (nM)
Reply numerically in nM, unit not repeated.

Req: What value of GI50 on HCT-116 does CCCOC(=O)[C@@H]1C(c2cc(OC)c(OC)c(OC)c2)c2cc3c(cc2[C@@H]2OC(=O)OC[C@@H]12)OCO3 (stereo partly specified) have?
Resp: 500

Req: Follow-up entry: CCOC(=O)[C@@H]1[C@H](c2cc(OC)c(OC)c(OC)c2)c2cc3c(cc2C(=O)[C@H]1CO)OCO3
Resp: 4350

Req: Follow-up entry: CCOC(=O)[C@@H]1[C@H](c2cc(OC)c(OC)c(OC)c2)c2cc3c(cc2[C@H](O)[C@H]1CO)OCO3
Resp: 24000

Req: Follow-up entry: COC(=O)[C@@H]1[C@H](c2cc(OC)c(O)c(OC)c2)c2cc3c(cc2[C@H](O)[C@H]1CO)OCO3
Resp: 200

Req: Follow-up entry: CCOC(=O)[C@@H]1[C@H](c2cc(OC)c(O)c(OC)c2)c2cc3c(cc2[C@H](O)[C@H]1CO)OCO3
Resp: 1700

Req: Follow-up entry: CCOC(=O)[C@@H]1[C@H](c2cc(OC)c(O)c(OC)c2)c2cc3c(cc2[C@@H]2OC(=O)OC[C@@H]12)OCO3
Resp: 600

Req: Follow-up entry: COc1cc([C@@H]2c3cc4c(cc3[C@H](O)[C@H]3COC(=O)[C@H]23)OCO4)cc(OC)c1OC
Resp: 10

Req: Follow-up entry: CCCOC(=O)[C@@H]1[C@H](c2cc(OC)c(OC)c(OC)c2)c2cc3c(cc2[C@H](O)[C@H]1CO)OCO3
Resp: 420

Req: Follow-up entry: COc1cc([C@@H]2c3cc4c(cc3[C@H](O)[C@@H](CO)[C@@H]2C(=O)O)OCO4)cc(OC)c1OC
Resp: 40000

Req: Follow-up entry: COC(=O)[C@@H]1[C@H](c2cc(OC)c(OC)c(OC)c2)c2cc3c(cc2[C@H](O)[C@H]1CO)OCO3
Resp: 40

Req: Follow-up entry: COC(=O)[C@@H]1[C@H](c2cc(OC)c(O)c(OC)c2)c2cc3c(cc2[C@@H]2OC(=O)OC[C@@H]12)OCO3
Resp: 500

Req: Follow-up entry: COc1cc([C@@H]2c3cc4c(cc3[C@@H](O[C@@H]3O[C@@H]5CO[C@@H](C)O[C@H]5[C@H](O)[C@H]3O)[C@H]3COC(=O)[C@H]23)OCO4)cc(OC)c1O [ETOPOSIDE]
Resp: 6160

Req: Follow-up entry: COC(=O)[C@@H]1[C@H](c2cc(OC)c(OC)c(OC)c2)c2cc3c(cc2C(=O)[C@H]1CO)OCO3
Resp: 6260

Req: Follow-up entry: CCOC(=O)[C@@H]1C(c2cc(OC)c(OC)c(OC)c2)c2cc3c(cc2[C@@H]2OC(=O)OC[C@@H]12)OCO3 (stereo partly specified)
Resp: 90

Req: Follow-up entry: CCCCOC(=O)[C@@H]1[C@H](c2cc(OC)c(OC)c(OC)c2)c2cc3c(cc2[C@H](O)[C@H]1CO)OCO3
Resp: 3700
